Provide the recorded TGI for the entries that follow.
Test system: SN12C renal
Assay: NCI tumour cell line growth inhibition, 48 h
Peptide text beside a SMILES is read from it. * marks the point of attachment. X26 = Clc1c(Cl)c(Cl)c(O*)c(Cl)c1Cl; Boc = CC(C)(C)OC(=O)*; OBn = c1ccc(CO*)cc1; Bn = c1ccc(C*)cc1

I'd like to know its TGI. The molecule in question is "S=c1[nH]nc(Cn2c3ccc(Br)cc3c3nc4ccccc4nc32)n1C1CCCCC1"
> 56.6 µM

Can you check CC(O)CNC1=CC(=O)C(=O)c2ccccc21 (stereo unspecified) next?
34.9 µM

Check O=c1[nH]c(=O)n(C2CC(O)C(CO)O2)cc1OC/C=C/Cc1ccccc1 (stereo unspecified) too.
> 100 µM

Check "CC(=O)c1cccc(N(/C=C/C(=O)C(F)(F)F)CC(=O)c2ccc(Cl)cc2)c1" too.
> 100 µM

Similarly, "O=C1[C@@H](c2ccc(Cl)cc2)[C@H]2CC=C[C@H]2N1O" ?
> 100 µM

Quick one: "Clc1ccc([O][In]([O]c2ccc(Cl)cn2)[O]c2ccc(Cl)cn2)nc1"
> 100 µM

Repeat for the following molecule: "CC(=O)N(CCN)CCN"
> 10 µM

Quick one: CC(C)c1cccc(C(C)C)c1NC(=O)C(=O)C(C(=O)c1ccccc1-c1ccccc1)C1OC(=O)c2ccccc21 (stereo unspecified)
49.9 µM

Queued: "NCCN(CCN(C(=O)Nc1ccccc1)c1ccccc1)C(=O)Nc1ccccc1"
69.7 µM

Follow-up entry: CCCCN1C(=O)CC2[C@@H]3CCc4cc(OC)ccc4C3CC[C@]2(C)C1=O (stereo partly specified)
> 10 µM

And for "N#Cc1nc(CCCN2C(=O)c3ccccc3C2=O)oc1N" ?
> 100 µM

Also "O=c1ccn(-c2ccccn2)c(=O)n1-c1ccccn1" , if possible.
> 100 µM

Same read-out for "COc1ccc(Cl)cc1Nc1nc(C(F)(F)F)ccc1C(=O)NN" ?
> 100 µM

Next molecule: "C=C1C(=O)O[C@@H]2C[C@@]3(C)CC(=O)C=C(C)[C@@H]3C[C@H]12"
26.2 µM

Now give it for "O=C(Nc1ccc(OC(F)(F)F)cc1)c1sccc1NCc1ccnc2ccccc12" too.
> 100 µM

Entry "CNC(=S)NNc1ncnc2c1c(-c1ccc(Cl)cc1)cn2-c1ccc(C)cc1" please
24.3 µM

Continue with CC(C)CC(NC(=O)C(CCC(=O)OCc1ccccc1)NC(=O)OC(C)(C)C)C(=O)NC(COCc1ccccc1)C(=O)NC(Cc1ccccc1)C(=O)Oc1c(Cl)c(Cl)c(Cl)c(Cl)c1Cl (stereo unspecified) (Boc-E(OBn)LS(Bn)F-X26; configuration not given here)
90.5 µM

Okay, and "COc1ccc(-c2cc(-c3ccc(Cl)cc3)c(C#N)c(=O)n2CCCCC(=O)Nc2ccccc2N)cc1" ?
> 100 µM

"CCOC(=O)c1c(NC(=O)c2ccc(C(C)C)cc2)sc2c(CN(C)C)c(O)ccc12" , same question.
17.9 µM

Can you handle "O=C1N[C@@H]2CCC[C@@H]2[C@@H]1c1ccc(Cl)cc1" next?
> 100 µM

Try this molecule too: "O=C1CS/C(=N/N=C/c2cn(Cc3ccc(Cl)cc3Cl)c3ccccc23)N1"
70.9 µM

Record: "CC1(C)OC[C@@H](C[C@H](O)COCc2ccccc2)O1"
> 100 µM

How about "Nc1nncc2[nH]cnc12" ?
> 100 µM

CC1(C)C(=O)C(O)=CC2C1=CCC1C2(C)C(=O)CC2(C)C(C(C)(O)C(=O)CC(O)C(C)(C)O)C(O)CC12C (stereo unspecified) , same question.
> 90.4 µM

Quick one: "C[C@H](c1ccccc1)N1C(=O)[C@@H](OCc2ccccc2)[C@H]1[C@H](COC(=O)COCc1ccccc1)OCc1ccccc1"
> 100 µM

And the next one, "O=C1c2cccnc2S(=O)(=O)N1c1ccc([N+](=O)[O-])cc1" ?
> 100 µM

Subsequent entry: "COc1cc(Nc2ccnc(N3CCN(c4ccnc5cc(Cl)ccc45)CC3)n2)cc(OC)c1"
> 100 µM

Again, but for COc1cc(/C=C2\CN(C)CC3=C2Nc2nc(SC)[nH]c(=O)c2C3c2cc(OC)c(OC)c(OC)c2)cc(OC)c1OC (stereo unspecified)
15.5 µM

Try the molecule COC(=O)C1=C(OC(=O)c2ccc(Cl)cc2)C(C(=O)OC)[C@@]2(O)[C@@H](C(=O)OC)C(c3ccccc3C(F)(F)F)C[C@@H]1[C@@H]2C(=O)OC (stereo partly specified)
6.66 µM

Please answer likewise for COc1ccc(C2SC(N)=Nc3c2c(C)nn3C(=O)c2ccc(Cl)cc2)cc1OC (stereo unspecified)
> 10 µM

What do you have for "Nc1cc(N)c2nc(-c3ccccc3)c(Oc3ccc(F)cc3)nc2c1" ?
52.7 µM

Now give it for "CCc1nc(N)nc(N)c1-c1ccc([N+](=O)[O-])c(NCc2ccccc2)c1" too.
44.5 µM

Another molecule to check: COc1cccc(N2C(=O)CS(=O)(=O)C2c2cccc(Oc3ccccc3)c2)c1 (stereo unspecified)
38.2 µM

Now give it for "Cc1cc([N+](=O)[O-])c(C)c2c1[nH]c1ccc(/C(CCC3CCCC3)=N\N)cc12" too.
29.7 µM

Further, for "O=c1oc2ccccc2c(O)c1C=NC(=S)c1ccncc1" ?
> 100 µM

And then "Clc1ccc(OCc2nnc(COc3ccc(OCc4nnc(COc5ccc(Cl)cc5Cl)o4)c(Cl)c3)o2)c(Cl)c1" , what is it?
> 100 µM

---

System: ACHN renal
Experiment: NCI tumour cell line growth inhibition, 48 h
measured-metric: TGI

I am curious: what TGI value has been reported for Cc1cc2c(cc1C)NC1=C(N2)OC(c2c[nH]c3ccc(COc4ccccc4)cc23)C1=O (stereo unspecified) ?
> 100 µM

Follow-up entry: "CS(=O)(=O)c1ccc(Cl)c([N+](=O)[O-])c1"
29.7 µM

Moving on to the next compound: "O=C(C(=O)c1ccc(Cc2ccc(C(=O)C(=O)c3ccccc3)cc2)cc1)c1ccccc1"
> 100 µM

Likewise for "Cc1cc(Cl)ccc1NC(=O)C(=O)Cc1nc2ccc(C(=O)c3ccccc3)cc2[nH]c1=O" ?
> 100 µM

Repeat with "O=C(/C=C\Nc1ccccc1O)C(F)(F)F"
> 100 µM

Similarly, "Cc1nc2c(n1CC(C)(C)C)C(=O)c1ccccc1C2=O" ?
> 100 µM

Okay, and "Cc1c(C)c2cc3c(=O)ccoc3c(C)c2oc1=O" ?
> 100 µM

Same question, "O=[N+]([O-])/C(Cl)=C(/C(Cl)=C(Cl)Cl)N1CCCCC1" this time
30.7 µM

Then "COc1cc(Nc2ccnc(N3CCN(c4ccnc5cc(Cl)ccc45)CC3)n2)cc(OC)c1" ?
> 100 µM

Also "COc1cc2nncc(Sc3cnnc4ccccc34)c2cc1OC" ?
51.9 µM

# iterate: "COc1cc(-c2oc3ccccc3c(=O)c2O)cc(OC)c1OC"
75.4 µM

---

Assignment: determine reported TGI for the given compounds.
System: HOP-62 NSCLC
Experiment: NCI tumour cell line growth inhibition, 48 h

Quick check: TGI of O=C1/C(=C/c2ccncc2)C(n2cccc2)c2c(Br)sc(Br)c21 (stereo not given) ?
11.3 µM

Lookup "N#CC(C#N)SCc1ccccc1"
> 100 µM

Repeat for the following compound: "Nc1c(S(N)(=O)=O)cc(S(N)(=O)=O)cc1S(N)(=O)=O"
> 100 µM

What do you get for "C#C[C@]1(O)CC[C@H]2[C@@H]3CC=C4c5nc(Nc6ccccn6)sc5CC[C@]4(C)[C@H]3CC[C@@]21C" ?
2.95 µM

Try COCC#C[C@@]1(O)CCCCC1CC(OC)OC (stereo not given in full) next.
> 100 µM

Cool, now "COc1ccc(C2=C(Cl)C(=O)O/C2=C\c2ccc(OC)c(Br)c2)cc1Cl"
30.8 µM

// same read-out, input: CCCCCCCCCCCCNC(=O)CCC(NC(=O)c1ccc(N(C)Cc2cnc3nc(N)nc(N)c3n2)cc1)C(=O)NCCCCCCCCCCCC (stereo not given)
95.6 µM

Next compound: Cc1cc(O)c2c(c1)C(O)(c1ccc3c(c1O)C(=O)c1c(O)cc(C)cc1C3(O)C1OC(CO)C(O)C(O)C1O)c1cccc(O)c1C2=O (stereo not given)
28.9 µM

Now the same for "O=C1[C@@H](c2ccc(Cl)cc2)[C@H]2CC=C[C@H]2N1O"
> 100 µM

Again, but for COc1ccc(OC)c(NC(=O)C(=O)C(C(=O)c2ccccc2F)C2OC(=O)c3ccccc32)c1 (stereo not given)
> 100 µM

Try this compound next: CCCCN1C(=O)CC2[C@@H]3CCc4cc(OC)ccc4C3CC[C@]2(C)C1=O (stereo not given in full)
> 10 µM

"Cc1ccc(C(=O)Cc2nc3c([nH]c2=O)c(C)nn3-c2ccccc2)c(C)c1" ?
> 10 µM

Field entry: "C[N+]1(CCN=C=NC2CCCCC2)CCOCC1"
> 100 µM

Could you do the same for "CC(C)(C)c1cc(/C=C2/NC(=O)NC2=O)cc(C(C)(C)C)c1O" , please?
33.1 µM

Same for CC(=O)OC1CC2(O)C(CCC3(C)C(c4ccc(=O)oc4)CCC32O)C2(C)C1=CC(O)C1OC12 (stereo not given)
0.172 µM

Here is the next compound: "O=C1N/N=C\c2ccc(cc2)OCc2cccc(n2)COc2ccc(cc2)/C=N\NC1=O"
> 25 µM

And the next one, COC1/C=C/OC2(C)Oc3c(C)c(O)c4c(c3C2=O)C(=O)C=C(NC(=O)/C(C)=C\C=C\C(C)C(OC=O)C(C)C(O)C(C)C(OC(C)=O)C1C)C4=O (stereo not given) ?
34.8 µM

Consider next the compound "Clc1ccccc1NN(Cc1ccccn1)c1ccccc1Cl" in the same way.
34.3 µM

Another compound: N/C(=N\OC(=O)c1ccccc1)C(C(=O)NOC(=O)c1ccccc1)C1CCCCC1 (stereo not given)
9.09 µM

Same thing, different compound: NCCCCNCCCNC(=O)CNC(=O)CC(O)C(N)CCCC(NC(=O)C(CN)NC(=O)C(O)CNC(=O)CC(N)c1ccc(O)cc1)C(=O)O (stereo not given)
> 10 µM

Another: "Nc1nc2c(ncn2Cc2ccccc2CCO)c(=O)[nH]1"
> 100 µM

Another: "COc1cc(OC)cc(Oc2nc3cc(F)c(F)cc3nc2-c2ccccc2)c1"
> 100 µM

Now consider O=C(CC(C(=O)c1cccs1)c1ccc2c(c1)OCO2)c1ccc(Br)cc1 (stereo not given) .
> 100 µM

Note, next up: "Cc1cnc2[nH]c(-c3cccc(F)c3)cc(=O)c2c1"
> 100 µM

And then "O=c1oc2ccccc2c(O)c1C=NC(=S)c1ccncc1" , what is it?
> 100 µM

Repeat for the following compound: Fc1cccc(Cl)c1C1SCc2nc3ccccc3n21 (stereo not given)
> 100 µM

Next entry: "O=C1NC(=S)NC(=O)C1C(c1ccc(Cl)cc1)C1C(=O)NC(=S)NC1=O"
> 100 µM

Also need "Cc1cccc(NS(=O)(=O)c2ccc(N=Nc3c(O)c(C(=O)O)cc4ccccc34)cc2)n1" , thanks.
> 100 µM

How about COc1cccc(N2C(=O)CS(=O)(=O)C2c2cccc(Oc3ccccc3)c2)c1 (stereo not given) ?
> 100 µM

Thanks! And COC(=O)c1ccc2c(c1)C(NC(C)=O)CCc1cc(OC)c(OC)c(OC)c1-2 (stereo not given) ?
52.4 µM

And for "C=C1C(=O)O[C@@H]2C[C@@]3(C)CC(=O)C=C(C)[C@@H]3C[C@H]12" ?
34.4 µM

Field entry: "Cc1cc(Cl)ccc1NC(=O)C(=O)Cc1nc2ccc(C(=O)c3ccccc3)cc2[nH]c1=O"
> 100 µM

And then "O=c1nc(-c2ccccc2)c2c3c(cccn13)CCC2" , what is it?
> 100 µM

Continue with "Cc1nnc2n1-c1ccccc1N(Cc1ccccc1)CC2"
> 100 µM

Record: O=C(O)C1=NN(c2ccc(S(=O)(=O)O)cc2)C2(C1)C(Cl)C(=O)N2c1nc2ccccc2s1 (stereo not given)
30.5 µM

Also, "O=[N+]([O-])c1ccc(N=Nc2c(O)[nH]c3ccc([N+](=O)[O-])cc23)cc1" please.
38.3 µM

What about COC(=O)C1=C(OC(=O)c2ccc(Cl)cc2)C(C(=O)OC)[C@@]2(O)[C@@H](C(=O)OC)C(c3ccccc3C(F)(F)F)C[C@@H]1[C@@H]2C(=O)OC (stereo not given in full) ?
> 100 µM

Record: "O=C(C(=O)c1ccc(Cc2ccc(C(=O)C(=O)c3ccccc3)cc2)cc1)c1ccccc1"
> 100 µM

Next compound: "CNC(=O)Nc1ccc(-c2nc(N3CCOCC3)nc3c2cnn3C2CCOCC2)cc1"
4.38 µM

Now the compound "COc1ccc(C(=O)N2c3ccccc3Sc3ccccc32)c(F)c1"
> 100 µM
